meta.source: patent US20220119513A1

- tested.on: T1, TGFβ3 (R&D Systems) (Homo sapiens (Human), UniProt P10600 301-412, Active TGFβ3 is a disulfide-linked homodimer of this chain; one copy is given.)
- T1 construct: also called TGFB3
- T1 sequence: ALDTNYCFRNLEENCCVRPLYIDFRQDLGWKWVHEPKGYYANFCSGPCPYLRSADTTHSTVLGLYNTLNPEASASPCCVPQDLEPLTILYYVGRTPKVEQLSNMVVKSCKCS
- assay: SPR full titration
Here, each record is paired with measured pKd data.
Expect pKd as a plain number equal to -log10 of the molar concentration.

binder	measurement.kind	assay.result
affinity matured HcLb 271 (antibody, V domains shown, full IgG; also called canHcLb/55SW/100DY/57SM/30IM/31TF + canHcLb/237ND/242TS) VH: EVQLVQSGAEVKKPGASVKVSCKTSGYTFMFYWMNWVRQAPGAGLDWMGQIFPAWGMTNYNEMFEGRVTLTADTSTSTAYMELSSLRAGDIAVYYCARGYGNYALDAMDYWGQGTLVTVSS VL: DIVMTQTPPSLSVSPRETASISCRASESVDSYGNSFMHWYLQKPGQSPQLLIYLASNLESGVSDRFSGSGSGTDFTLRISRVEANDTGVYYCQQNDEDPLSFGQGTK	pKd	9.02
affinity matured HcLb 275 (antibody, V domains shown, full IgG; also called canHcLb/55SW/100DY/57SM/30IW/31TF/28TK + canHcLb/237ND/242TS) VH: EVQLVQSGAEVKKPGASVKVSCKTSGYKFWFYWMNWVRQAPGAGLDWMGQIFPAWGMTNYNEMFEGRVTLTADTSTSTAYMELSSLRAGDIAVYYCARGYGNYALDAMDYWGQGTLVTVSS VL: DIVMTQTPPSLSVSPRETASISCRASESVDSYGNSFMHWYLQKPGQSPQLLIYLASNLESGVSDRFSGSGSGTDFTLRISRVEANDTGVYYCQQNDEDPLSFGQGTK	pKd	9.08
affinity matured HcLb 217 (antibody, V domains shown, full IgG; also called canHcLb/S55W/D100Y/I30/M + canHcLb/237ND/242TS) VH: EVQLVQSGAEVKKPGASVKVSCKTSGYTFMTYWMNWVRQAPGAGLDWMGQIFPAWGSTNYNEMFEGRVTLTADTSTSTAYMELSSLRAGDIAVYYCARGYGNYALDAMDYWGQGTLVTVSS VL: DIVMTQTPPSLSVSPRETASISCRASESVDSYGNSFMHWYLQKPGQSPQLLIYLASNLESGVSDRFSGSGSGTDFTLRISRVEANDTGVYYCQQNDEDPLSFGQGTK	pKd	9.17

Name the recorded pKd of the binder listed here: affinity matured HcLb 272 (antibody, V domains shown, full IgG; also called canHcLb/55SW/100DY/57SM/30IM/31TF/28TK + canHcLb/237ND/242TS) VH: EVQLVQSGAEVKKPGASVKVSCKTSGYKFMFYWMNWVRQAPGAGLDWMGQIFPAWGMTNYNEMFEGRVTLTADTSTSTAYMELSSLRAGDIAVYYCARGYGNYALDAMDYWGQGTLVTVSS VL: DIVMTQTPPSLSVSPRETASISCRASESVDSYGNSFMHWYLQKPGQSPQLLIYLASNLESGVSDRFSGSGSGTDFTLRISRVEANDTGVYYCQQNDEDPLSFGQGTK 9.05

Name the recorded pKd of the binder listed here: affinity matured HcLb 189 (antibody, V domains shown, full IgG; also called canHcLb/S55W/D100Y + canHcLb/237ND/242TS) VH: EVQLVQSGAEVKKPGASVKVSCKTSGYTFITYWMNWVRQAPGAGLDWMGQIFPAWGSTNYNEMFEGRVTLTADTSTSTAYMELSSLRAGDIAVYYCARGYGNYALDAMDYWGQGTLVTVSS VL: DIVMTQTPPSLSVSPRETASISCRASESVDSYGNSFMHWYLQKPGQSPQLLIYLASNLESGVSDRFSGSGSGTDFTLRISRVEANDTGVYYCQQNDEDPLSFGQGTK 9.65
